Hey, just so you know, these numbers are from patent US20250026849A1.

targetUnderTest: T1, CD123 (Homo sapiens (Human), UniProt P26951 19-305, limits assumed)
T1 construct: The CD123 construct used in the ELISA is not described; also called CD123-Signal
T1 sequence: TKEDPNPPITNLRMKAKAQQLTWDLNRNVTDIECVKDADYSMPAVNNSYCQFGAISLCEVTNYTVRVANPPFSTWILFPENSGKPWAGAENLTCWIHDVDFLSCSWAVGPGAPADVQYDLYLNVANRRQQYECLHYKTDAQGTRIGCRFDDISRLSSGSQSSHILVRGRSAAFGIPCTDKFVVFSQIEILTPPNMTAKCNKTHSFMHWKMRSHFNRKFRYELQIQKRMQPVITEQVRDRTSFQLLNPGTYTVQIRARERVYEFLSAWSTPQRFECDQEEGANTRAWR
assayName: ELISA
Parameters: unit not given here
Label scheme for ELISA_avg: low class: < 4; middle class: ≥ 4 and < 5; high class: ≥ 5

For orientation, consider the following solved cases.
Req: Looking at D domain of SEQ ID NO: 571 (designed binder) MGSWYEFDMRLDAIWERLTALGGSEAELADFEQYIAEFERQLQDYKGKGNPEVEALFDEAWAIEDELYAYRHN , which class would you pick?
Resp: high class

Req: # bin label for D domain of SEQ ID NO: 501 (designed binder) MGSWVFFKEDLATIKNDLEALGGSEAELAWFEMMIADFEADLQYYKGKGNPEVEALRKEAAAIRDELQAYRHN
Resp: low class

Req: Category of D domain of SEQ ID NO: 429 (designed binder) MGSWVEFEERLEAIEERLFALGGSEAELAAFEKEIAAFESELQAYKGKGNPEVEWLRDDAANIRHWLQAYRHN , please.
Resp: low class

Req: Quick check: band for D domain of SEQ ID NO: 482 (designed binder) MGSWTYFKDDLADIKQWLEALGGSEAELAFFEIEIAEFEEELQEYKGKGNPEVEALRKEAAAIRDELQAYRHN
Resp: middle class

Req: Into which category would you place D domain of SEQ ID NO: 521 (designed binder) MGSWAWFKEDLAEIKVFLEALGGSEAELAEFEVSIADFEYELQDYKGKGNPEVEALRKEAAAIRDELQAYRHN ?
Resp: low class

***
Req: For D domain of SEQ ID NO: 535 (designed binder) MGSWHWFKIVLADIKDGLEALGGSEAELAYFETTIADFEMDLQHYKGKGNPEVEALRKEAAAIRDELQAYRHN , which ELISA_avg bin applies?
Resp: middle class

Req: Band for D domain of SEQ ID NO: 400 (designed binder) MGSWVEFYSRLDAIEDRLWALGGSEAELAAFEKEIAAFESELQAYKGKGNPEVEWLRIAAASIREDLQAYRHN ?
Resp: high class

Req: Which class is correct for the following binder? D domain of SEQ ID NO: 354 (designed binder) MGSWSEFITRLEAIDDRLWALGGSEAELAAFEKEIAAFESELQAYKGKGNPEVEILREEAAEIRQHLQAYRHN
Resp: low class

Req: Determine which band this binder sits in: D domain of SEQ ID NO: 628 (designed binder) MGSWTEFDERLDAIDWRLEALGGSEAELAWFEGDIALFEQYLQVYKGKGNPEVEALMEEADAIKAELDAYRHN
Resp: middle class

Req: Returns: class label. Input: D domain of SEQ ID NO: 557 (designed binder) MGSWDFFKYDLANINEWLEALGGSEAELADFEYGIADFELWLQDYKGKGNPEVEALRKEAAAIRDELQAYRHN
Resp: high class

Req: Kindly identify the class of D domain of SEQ ID NO: 555 (designed binder) MGSWWDFKDWLAEIKHDLEALGGSEAELALFESEIADFEFGLQWYKGKGNPEVEALRKEAAAIRDELQAYRHN .
Resp: middle class

Req: Lab log: D domain of SEQ ID NO: 612 (designed binder) MGSWEEFDYRLYAIQDRLYALGGSEAELAFFEWEIADFEHMLQMYKGKGNPEVEALFQEADAIDAELHAYRHN — assign ELISA_avg category
Resp: middle class

Req: Band assignment needed for D domain of SEQ ID NO: 578 (designed binder) MGSWYEFDHRLEAIYDRLWALGGSEAELAFFEFDIADFEWDLQSYKGKGNPEVEALFDEAAAIGHELLAYRHN please.
Resp: middle class

Req: Would you mind sorting D domain of SEQ ID NO: 620 (designed binder) MGSWIEFEDRLDAITDRLWALGGSEAELAEFEHQIAFFEEDLQWYKGKGNPEVEALHMEAEAIMEELGAYRHN into the appropriate category?
Resp: high class

Req: Bin this entry: D domain of SEQ ID NO: 539 (designed binder) MGSWQIFKGELAYIKQYLEALGGSEAELAFFEFDIAEFEEDLQYYKGKGNPEVEALRKEAAAIRDELQAYRHN
Resp: middle class

Req: # bin label for D domain of SEQ ID NO: 362 (designed binder) MGSWVEFHDRLEAIEDRLYALGGSEAELAAFEKEIAAFESELQAYKGKGNPEVEWLREDAAYIRSILQAYRHN
Resp: middle class
